tested on: Plasmodium falciparum; test: Screen against P. falciparum Asexual Blood Stage (ABS), at 5uM; type: functional, Dd2; settings: tested at 5 uM
In all, about 65,000 compounds went through this assay and about 2,100 (3.2%) showed an effect of 50% or more. The median lay at about -52%. The full list was thinned out, with strong results kept by preference.
endpointName: INHIBITION (%)
Provide the reading as a plain figure in %.

COCCN1CC=C(c2cccc(OC)c2)CC1 : 13.9
Cc1nnsc1CN1C[C@@H]2CC[C@H]1CN(Cc1ccccn1)C2 : -2.06
O[C@@]1(c2ccccn2)CC[C@H]2CN(Cc3ccccn3)C[C@H]21 : -89.9
OCCN1CCC(c2cncc(-c3cccc(Cl)c3)n2)CC1 : 71.1
Cc1nc(C)c(CC(=O)N2CCCN(CC3CC3)C(C(C)C)C2)c(=O)[nH]1 (centres undefined) : -23.8
Cc1nc(N)nc(C)c1CC(=O)N1CCCN(CC2CC2)C(C(C)C)C1 (centres undefined) : -198
CN1CCC(c2cncc(Cl)n2)CC1 : -28.5
COc1ncc(-c2cc(NC3CCCC3)nc3[nH]ccc23)c(OC)n1 : 74

Form field: reported INHIBITION of CC(C)C1CN(c2cccc(C#N)n2)CCCN1CC1CC1 (centres undefined)
84.3

# INHIBITION lookup, item O=C1[C@H]2CN(Cc3nccs3)C[C@H]2CN1c1cncnc1
-64.4

For the compound shown here, Cc1noc(C)c1CN1C[C@@H]2CCCO[C@@H]2[C@H](NS(C)(=O)=O)C1 , give the reported INHIBITION.
-59.8

Give its INHIBITION value. Item: COCCN1CC[C@H]2OCC[C@@H](C(=O)Nc3cccnc3)[C@@H]2C1
-67.2

If you can, please state the reported INHIBITION value of O=C(CN1C[C@@H]2CC[C@H]1CN(Cc1ccccn1)C2)Nc1ccccc1 .
83.6

Form field: reported INHIBITION of COCCc1ncc(CN2CCCC(C(=O)c3ccccc3)C2)cn1 (centres undefined)
-145

Query: INHIBITION; subject: Cc1cc(C)nc(Nc2ccc(C3CCCCN3)cn2)n1 (centres undefined)
-64.1

# get_value(readout='INHIBITION', item= CNC(=O)c1cn(C(C)(C)C)c2ncccc12 )
-148

Could you share which INHIBITION value was measured for FC(F)CN1CCOC(Cn2cccn2)C1 (centres undefined) ?
-69.4

Please give the measured INHIBITION for this compound: N#Cc1cccc(N2CCCC3(CNCCO3)C2)n1 (centres undefined)
-104

Any idea what INHIBITION was measured for COCCN1CCC(c2cncc(-c3cccc(Cl)c3)n2)CC1 ?
71.1
